Target: α-1A adrenoreceptor (canine prostate smooth muscle) (Canis lupus)
Construct: antagonism of phenylephrine-induced contraction (pA2, Schild)
Sequence (A0A8I3NK63 1-466): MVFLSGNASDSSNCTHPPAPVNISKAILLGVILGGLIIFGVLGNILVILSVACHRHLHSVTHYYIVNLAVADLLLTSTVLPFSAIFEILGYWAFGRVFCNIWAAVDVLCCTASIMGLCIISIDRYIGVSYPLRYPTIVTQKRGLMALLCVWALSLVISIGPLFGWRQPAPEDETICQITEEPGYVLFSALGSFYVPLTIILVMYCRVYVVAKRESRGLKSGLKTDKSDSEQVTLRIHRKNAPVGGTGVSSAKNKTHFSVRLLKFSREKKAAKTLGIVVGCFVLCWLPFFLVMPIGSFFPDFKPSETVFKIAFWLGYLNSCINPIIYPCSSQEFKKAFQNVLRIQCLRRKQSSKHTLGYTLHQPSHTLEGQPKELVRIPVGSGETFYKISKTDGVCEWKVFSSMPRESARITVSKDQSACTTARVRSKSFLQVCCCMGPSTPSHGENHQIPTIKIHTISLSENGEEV
Experiment: Functional antagonism: inhibition of phenylephrine-induced contraction of canine prostate strips
Type: cell-based
Details: Schild plot
Where a name gives a salt, the structure may show the parent alone.
quantity: In Vitro Characterization (pA2) Dog Prostate

compound	observedValue
COc1cccc2c1[C@@H]1CN(CCCCn3c(=O)[nH]c4c(sc5cccnc54)c3=O)C[C@H]1CO2 [Example 3, hydrochloride]	9.43
Cl.O=c1[nH]c2c(sc3ccccc32)c(=O)n1CCN1C[C@@H]2COc3ccccc3[C@@H]2C1 (racemic)	6.91
COc1cccc2c1[C@H]1CN(CCCCn3c(=O)[nH]c4c(sc5nccnc54)c3=O)C[C@@H]1CO2.Cl.Cl (racemic)	9.03
COc1cccc2c1[C@@H]1CN(CCCn3c(=O)[nH]c4c(sc5ccccc54)c3=O)C[C@@H]1CO2.Cl (racemic)	7.48
COc1cccc2c1OC[C@H]1CN(CCCn3c(=O)[nH]c4c(sc5ccccc54)c3=O)C[C@@H]21.Cl (racemic)	7.02
COc1cccc2c1[C@@H]1CN(CCCCn3c(=O)[nH]c4c(sc5ncc(Cl)nc54)c3=O)C[C@H]1CO2 [Example 13, hydrochloride]	9.91
COc1cccc2c1[C@@H]1CN(CCCCn3c(=O)[nH]c4c(sc5cccnc54)c3=O)C[C@@H]1CO2 [Example 1, hydrochloride]	8.69
COc1cccc2c1OC[C@H]1CN(CCn3c(=O)[nH]c4c(sc5ccccc54)c3=O)C[C@@H]21.Cl (racemic)	7.33
COc1cccc2c1[C@@H]1CCN(CCCCn3c(=O)[nH]c4c(sc5cccnc54)c3=O)C[C@H]1CO2 [Example 95, dihydrochloride]	8.58
COc1ccc2sc3c(=O)n(CCCCN4C[C@H]5COc6cccc(OC)c6[C@@H]5C4)c(=O)[nH]c3c2n1 [Example 26, dihydrochloride]	9.15
COc1cccc2c1[C@@H]1CCN(CCCCn3c(=O)[nH]c4c(sc5ncccc54)c3=O)C[C@H]1CO2 (relative stereo) [Example 85, dihydrochloride]	8.6
COc1ccc2c(c1)OC[C@H]1CN(CCCn3c(=O)[nH]c4c(sc5ccccc54)c3=O)C[C@@H]21.Cl (racemic)	6.92
COc1cccc2c1[C@@H]1CN(CCn3c(=O)[nH]c4c(sc5ccccc54)c3=O)C[C@@H]1CO2.Cl (racemic)	7.76

###

Below is a list of entries, each paired with its recorded Kb value.
Molecular target: α-1 Adrenoceptors (Rat Aorta) (Rattus norvegicus)
Construct: Rat Aorta; from tissue; host or cells: rat aorta
Sequence (P23944 whole entry): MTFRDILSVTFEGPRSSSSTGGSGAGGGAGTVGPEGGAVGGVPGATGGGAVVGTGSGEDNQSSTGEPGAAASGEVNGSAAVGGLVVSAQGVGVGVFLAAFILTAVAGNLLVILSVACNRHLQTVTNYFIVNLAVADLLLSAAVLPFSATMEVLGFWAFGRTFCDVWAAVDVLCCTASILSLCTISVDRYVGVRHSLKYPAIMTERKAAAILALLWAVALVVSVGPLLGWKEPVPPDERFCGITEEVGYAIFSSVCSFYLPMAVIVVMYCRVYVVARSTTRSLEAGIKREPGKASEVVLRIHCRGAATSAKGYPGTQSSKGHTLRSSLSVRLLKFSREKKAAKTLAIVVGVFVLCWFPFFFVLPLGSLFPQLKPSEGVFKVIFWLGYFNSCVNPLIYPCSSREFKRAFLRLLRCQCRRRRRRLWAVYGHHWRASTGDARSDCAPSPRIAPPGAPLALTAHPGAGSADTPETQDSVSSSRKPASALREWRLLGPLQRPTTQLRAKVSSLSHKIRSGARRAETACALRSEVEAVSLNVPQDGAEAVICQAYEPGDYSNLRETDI
Test: Functional antagonism at α-1 adrenoceptors, rat aorta
Assay type: cell-based
Details: read-out: In Vitro Characterization (pA2) Rat Aorta (converted)
Where a name gives a salt, the structure may show the parent alone.

compound	Kb (nM)
COc1cccc2c1[C@@H]1CN(CCCCn3c(=O)[nH]c4c(sc5nc(-c6ccccc6)cnc54)c3=O)C[C@@H]1CO2 [Example 40, hydrochloride]	4.47
COc1ccc2c(n1)sc1c(=O)n(CCCCN3C[C@H]4COc5cccc(OC)c5[C@@H]4C3)c(=O)[nH]c12 [Example 46, hydrochloride]	0.155
COc1cccc2c1[C@@H]1CN(CCCCn3c(=O)[nH]c4c(sc5ccc(Cl)nc54)c3=O)C[C@@H]1CO2 [Example 37, hydrochloride]	0.229
COc1cccc2c1[C@@H]1CN(CCCCn3c(=O)[nH]c4c(sc5ncccc54)c3=O)C[C@@H]1CO2 [Example 34, hydrochloride]	0.646
COc1cccc2c1[C@@H]1CN(CCCCn3c(=O)[nH]c4c(sc5ncc(-c6ccccc6)nc54)c3=O)C[C@H]1CO2 [Example 50, hydrochloride]	0.389
